# ASSAY_DETAILS: chemical genetic growth profiling, strain panel (AID 1159580);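 note: tested at 20 µM; growth read once vehicle control cultures reached saturation at 30 °C; 1 = growth at the plate median or of vehicle wells; lower values mean less growth of the strain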
# EXPERIMENTAL_CONTEXT: S. cerevisiae deletion strains, growth OD, locus YKL048C, strain ELM1, active compounds read low
About 2,000 (36%) of roughly 5,500 compounds were called active. Another 18% or so got no clear call; they are omitted. The list shows a part of the results.
Please respond with reported normalized growth for every item in the list.

Example entries and their recorded answers appear below.
1. NNC(=O)c1oc2nc(-c3ccccc3)cc(-c3ccccc3)c2c1N : 0.956 (inactive)
2. FC(F)(F)c1ccncc1-c1nc(-c2ccc(Cl)cc2)cs1 : 0.955 (inactive)
3. O=C(Nc1ccc(F)cc1)c1cc(Br)ccc1O : 0.891 (inactive)

Dear reader, for each entry below, please note its normalized growth.
1. Cc1cc2nc3c(Cl)c(O)c4ccccc4c3nc2cc1C
2. Cc1ccc2nc3c(nc2c1)-c1ccccc1C3=O
3. O=C(Nc1ccccc1Sc1ccc(C(F)(F)F)cc1[N+](=O)[O-])C(Cl)Cl
4. O=C(Nc1cc(Cl)cc(Cl)c1)c1cc(Br)ccc1O
5. COC(=O)c1sccc1S(=O)(=O)Nc1cc(C(F)(F)F)cc(C(F)(F)F)c1

A)
1. 0.737 (active)
2. 0.309 (active)
3. 0.949 (inactive)
4. 0.848 (inactive)
5. 0.95 (inactive)

Batch of 6 molecules: report normalized growth for each.
1. Cn1ncc(-c2nc(-c3ccc(Cl)cc3)cs2)c1N
2. COc1ccc(OC)c2nc3c(nc12)C(=O)c1ccccc1-3
3. O=C(OCCNc1ccc([N+](=O)[O-])cn1)c1ccc([N+](=O)[O-])o1
4. C=CCC1C(=O)N(S(=O)(=O)c2ccc(Cl)cc2)N=C1CCC (stereo not given)
5. CC1SC(c2cccnc2)N(c2ccc(F)cc2F)C1=O (stereo not given)
6. O=S(=O)(Nc1c(F)cccc1F)c1ccc(Cl)c(Cl)c1

A)
0.95 (inactive)
0.953 (inactive)
0.772 (active)
0.962 (inactive)
1 (inactive)
0.93 (inactive)

Record normalized growth per entry; entries follow.
1. Cc1cc(C)c2cc(C(=O)NCCNc3ccc(C(F)(F)F)cn3)[nH]c2c1
2. Cn1cc(Br)c(-c2cccc(NS(=O)(=O)c3ccc(Cl)cc3)c2)n1
3. O=S(=O)(Nc1cc(C(F)(F)F)cc(C(F)(F)F)c1)c1ccc(Cl)s1

A)
0.511 (active)
0.999 (inactive)
0.701 (active)
